The following molecules are listed with their measured Ki values.
target: IMPDH human type II (Homo sapiens, UniProt P12268); test: biochemical; details: read-out: Ki

Please review the entries below; each comes with its answer.
Smiles String	Result Type	Data Value
COc1cc(NC(=O)Nc2cccc([C@H](C)NC(=O)O[C@H]3CCOC3)c2)ccc1C#N	Ki	10 to 50 nM
COc1cc(NC(=O)Nc2cccc(CNC(=O)O[C@@H](CCl)CC#N)c2)ccc1-c1cnco1	Ki	< 10 nM
COc1cc(NC(=O)Nc2cccc(CNC(=O)OC[C@H](CC#N)N(C)C)c2)ccc1-c1cnco1	Ki	< 10 nM

Ki recorded for this molecule, COc1cc(NC(=O)Nc2cccc(CNC(=O)O[C@H](CN3CCOCC3)c3ccccc3)c2)ccc1-c1cnco1 , is < 10 nM

* * *

test system: human PBMC T cells; assay: cells; type: cell-based; settings: Homo sapiens, 72 h, read-out: T-cells (IC50)
pIC50: −log10 of the molar value.
Result Type: pIC50

The cases that follow already have their pIC50 on record.
Compound	Data Value
COc1cc(NC(=O)Nc2cccc(CNC(=O)O[C@H](CN(CC3CC3)C(C)C)c3ccccc3)c2)ccc1-c1cnco1	6.00 to 7.00
CCCN(C[C@@H](OC(=O)NCc1cccc(NC(=O)Nc2ccc(-c3cnco3)c(OC)c2)c1)c1ccccc1)C(C)C	6.00 to 7.00
CCC(CCC#N)COC(=O)NCc1cccc(NC(=O)Nc2ccc(-c3cnco3)c(OC)c2)c1 (stereo not shown)	6.00 to 7.00

Turning now to a further compound:
# pIC50 measured on human PBMC T cells for item COc1cc(NC(=O)Nc2cccc(CNC(=O)OC3COCC3OCC(=O)O)c2)ccc1-c1cnco1 (stereo not shown) = < 6.00

* * *

test system: human PBMC T cells; assay: cells; format: cell-based; details: Homo sapiens, 72 h, read-out: T-cells (IC50)
pIC50: −log10 of the molar value.
Result Type: pIC50

Compound	Target Entity	pIC50
COc1cc(NC(=O)Nc2cccc(CNC(=O)O[C@H](CO)CCC#N)c2)ccc1-c1cnco1 [Compound 59]	human PBMC T cells	< 6.00
COc1cc(NC(=O)Nc2cccc(CNC(=O)OC(CCO)CCC#N)c2)ccc1-c1cnco1 (centres unmarked) [Compound 45]	human PBMC T cells	6.00 to 7.00
COc1cc(NC(=O)Nc2cccc(CNC(=O)OCCCl)c2)ccc1-c1cnco1 [Compound 24]	human PBMC T cells	< 6.00
CC[C@H](CO)OC(=O)N[C@H](C)c1cccc(NC(=O)Nc2ccc(C#N)c(OC)c2)c1 [Compound 179]	human PBMC T cells	< 6.00
CCC(CO)OC(=O)N[C@@H](C)c1cccc(NC(=O)Nc2ccc(-c3cnco3)c(OC)c2)c1 (some centres unmarked) [Compound 164]	human PBMC T cells	6.00 to 7.00

Entry CCN(CC)CC(CO)OC(=O)NCc1cccc(NC(=O)Nc2ccc(-c3cnco3)c(OC)c2)c1 (centres unmarked) [Compound 80] — recorded pIC50 = 6.00 to 7.00

Entry CC[C@@H](CCN(CC)CC)OC(=O)NCc1cccc(NC(=O)Nc2ccc(-c3cnco3)c(OC)c2)c1 [Compound 102] — recorded pIC50 = 6.00 to 7.00

Summary for this compound, CC[C@H](CC#N)OC(=O)NCc1cccc(NC(=O)Nc2ccc(-c3cnco3)c(OC)c2)c1 [Compound 81] : pIC50 is 6.00 to 7.00

* * *

system: human PBMC T cells; assay: cells; format: cell-based; details: Homo sapiens, 72 h, read-out: T-cells (IC50)
Result Type: IC50

Molecule	Target Entity	IC50
CCCN(CC)CC(OC(=O)NCc1cccc(NC(=O)Nc2ccc(-c3cnco3)c(OC)c2)c1)c1ccccc1 (stereo not drawn) [Compound 111]	human PBMC T cells	0.1 to 1 µM
CCC(CC#N)OC(=O)N[C@@H](C)c1cccc(NC(=O)Nc2ccc(-c3cnco3)c(OC)c2)c1 (stereo partly drawn) [Compound 181]	human PBMC T cells	< 0.1 µM
CCC(CO)OC(=O)N[C@@H](C)c1cccc(NC(=O)Nc2ccc(C#N)c(OC)c2)c1 (stereo partly drawn) [Compound 176]	human PBMC T cells	> 1 µM
CNCCC(OC(=O)NCc1cccc(NC(=O)Nc2ccc(-c3cnco3)c(OC)c2)c1)c1ccccc1 (stereo not drawn) [Compound 34]	human PBMC T cells	> 1 µM
COc1cc(NC(=O)Nc2cccc(CNC(=O)O[C@H](CN(CC(C)C)C(C)C)c3ccccc3)c2)ccc1-c1cnco1 [Compound 109]	human PBMC T cells	0.1 to 1 µM
COc1cc(NC(=O)Nc2cccc(CNC(=O)OC(CCN(C)C(C)C)c3ccccc3)c2)ccc1-c1cnco1 (stereo not drawn) [Compound 128]	human PBMC T cells	0.1 to 1 µM
COc1cc(NC(=O)Nc2cccc(CNC(=O)OC(CCN3CCOCC3)c3ccccc3)c2)ccc1-c1cnco1 (stereo not drawn) [Compound 48]	human PBMC T cells	0.1 to 1 µM
CCC(OC(=O)NCc1cccc(NC(=O)Nc2ccc(-c3cnco3)c(OC)c2)c1)C1(C#N)CC1 (stereo not drawn) [Compound 103]	human PBMC T cells	0.1 to 1 µM

Lab note: next molecule to report on.
Short answer for COc1cc(NC(=O)Nc2cccc(CNC(=O)OC[C@H](CC#N)NC(=O)CC(C)(C)C)c2)ccc1-c1cnco1 [Compound 10] : IC50 was 0.1 to 1 µM

* * *

molecular target: IMPDH human type II (Homo sapiens, UniProt P12268); experiment: biochemical; settings: read-out: Ki
Reported Ki values for the following compounds.

Compound	Target Entity	Ki
CC[C@H](CC#N)OC(=O)N[C@H](C)c1cccc(NC(=O)Nc2ccc(-c3cnco3)c(OC)c2)c1 [Compound 171]	IMPDH human type II (Homo sapiens, UniProt P12268)	> 0.05 µM
CCN(CC(OC(=O)NCc1cccc(NC(=O)Nc2ccc(-c3cnco3)c(OC)c2)c1)c1ccccc1)C1CC1 (stereo not drawn) [Compound 135]	IMPDH human type II (Homo sapiens, UniProt P12268)	> 0.05 µM
CCN(CC)C[C@@H](OC(=O)NCc1cccc(NC(=O)Nc2ccc(-c3cnco3)c(OC)c2)c1)C1CCCCC1 [Compound 157]	IMPDH human type II (Homo sapiens, UniProt P12268)	0.01 to 0.05 µM
CCC(CN1CC[S+]([O-])CC1)OC(=O)NCc1cccc(NC(=O)Nc2ccc(-c3cnco3)c(OC)c2)c1 (stereo not drawn) [Compound 84]	IMPDH human type II (Homo sapiens, UniProt P12268)	0.01 to 0.05 µM
CCC(OC(=O)NCc1cccc(NC(=O)Nc2ccc(-c3cnco3)c(OC)c2)c1)C1(C#N)CC1 (stereo not drawn) [Compound 103]	IMPDH human type II (Homo sapiens, UniProt P12268)	> 0.05 µM
COc1cc(NC(=O)Nc2cccc(CNC(=O)O[C@@H](C)CN(C)Cc3ccco3)c2)ccc1-c1cnco1 [Compound 30]	IMPDH human type II (Homo sapiens, UniProt P12268)	< 0.01 µM
CC[C@H](CO)OC(=O)N[C@@H](C)c1cccc(NC(=O)Nc2ccc(C#N)c(OC)c2)c1 [Compound 180]	IMPDH human type II (Homo sapiens, UniProt P12268)	0.01 to 0.05 µM
CCOc1cc(NC(=O)Nc2cccc([C@H](C)NC(=O)O[C@H]3CCOC3)c2)ccc1C#N [Compound 186]	IMPDH human type II (Homo sapiens, UniProt P12268)	> 0.05 µM

What the record says about CCCN(CCC(OC(=O)NCc1cccc(NC(=O)Nc2ccc(-c3cnco3)c(OC)c2)c1)c1ccccc1)CC(C)C (stereo not drawn) [Compound 120] : Ki is > 0.05 µM

Short answer for COc1cc(NC(=O)Nc2cccc(CNC(=O)O[C@H](CC#N)CN3CCOCC3)c2)ccc1-c1cnco1 [Compound 18] : Ki was < 0.01 µM

Lab book: Ki of CCCN(CC1CC1)CC(OC(=O)NCc1cccc(NC(=O)Nc2ccc(-c3cnco3)c(OC)c2)c1)c1ccccc1 (stereo not drawn) [Compound 114] noted as > 0.05 µM

Given item COc1cc(NC(=O)Nc2cccc(CNC(=O)O[C@H](C)CC#N)c2)ccc1-c1cnco1 [Compound 29] , the value recorded as its Ki is < 0.01 µM

Looking up COc1cc(NC(=O)Nc2cccc(CNC(=O)O[C@H](CCN(C)C)c3ccccc3)c2)ccc1-c1cnco1 [Compound 39] , I see its Ki listed as < 0.01 µM

Recorded Ki (compound CCC(OC(=O)NCc1cccc(NC(=O)Nc2ccc(-c3cnco3)c(OC)c2)c1)C(C)(C)C#N (stereo not drawn) [Compound 100] ): 0.01 to 0.05 µM

// Ki lookup, compound = COc1cc(NC(=O)Nc2cccc(CNC(=O)OC(CCN3CCCC3)c3ccccc3)c2)ccc1-c1cnco1 (stereo not drawn) [Compound 56] , result: < 0.01 µM

* * *

Reported pKi values for the following compounds.
biological target: IMPDH human type II (Homo sapiens); experiment: biochemical; conditions: read-out: Ki
pKi: −log10 of the molar value.

For orientation, consider the following solved cases.
Compound	pKi
COc1cc(NC(=O)Nc2cccc(CNC(=O)OCCCOC(C)=O)c2)ccc1-c1cnco1	> 8.00
COc1cc(NC(=O)Nc2cccc(CNC(=O)OC3COCC3OCC#N)c2)ccc1-c1cnco1 (stereo not shown) [Compound 75]	> 8.00
COc1cc(NC(=O)Nc2cccc(CNC(=O)O[C@@H]3CC[C@H](OC(C)=O)C3)c2)ccc1-c1cnco1	< 7.30

Next:
pKi reported for this compound COc1cc(NC(=O)Nc2cccc(CNC(=O)OC(CCO)CCC#N)c2)ccc1-c1cnco1 (stereo not shown) : > 8.00
